All figures here come from patent US20240018502A1.

Target: plasma purified human complement protein C3 (human) (UniProt P01024)
Sequence (P01024 23-667, chain 1 of 2): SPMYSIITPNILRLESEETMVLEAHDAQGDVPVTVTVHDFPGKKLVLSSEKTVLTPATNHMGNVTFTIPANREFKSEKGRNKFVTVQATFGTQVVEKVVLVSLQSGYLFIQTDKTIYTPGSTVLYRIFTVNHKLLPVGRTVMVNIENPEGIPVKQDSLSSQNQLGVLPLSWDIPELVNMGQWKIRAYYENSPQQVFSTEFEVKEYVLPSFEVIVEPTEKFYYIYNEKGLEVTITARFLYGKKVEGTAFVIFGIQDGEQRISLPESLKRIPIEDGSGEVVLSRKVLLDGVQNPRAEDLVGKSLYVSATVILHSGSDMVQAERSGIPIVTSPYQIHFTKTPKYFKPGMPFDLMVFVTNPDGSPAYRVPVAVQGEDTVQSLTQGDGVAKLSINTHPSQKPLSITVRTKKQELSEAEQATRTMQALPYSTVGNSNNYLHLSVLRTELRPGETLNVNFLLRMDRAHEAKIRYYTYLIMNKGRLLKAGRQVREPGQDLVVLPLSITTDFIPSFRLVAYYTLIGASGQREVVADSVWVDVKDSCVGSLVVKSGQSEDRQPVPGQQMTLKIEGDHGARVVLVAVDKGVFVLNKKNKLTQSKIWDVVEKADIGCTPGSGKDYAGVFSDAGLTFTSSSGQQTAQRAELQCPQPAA
Sequence (P01024 672-1663, chain 2 of 2): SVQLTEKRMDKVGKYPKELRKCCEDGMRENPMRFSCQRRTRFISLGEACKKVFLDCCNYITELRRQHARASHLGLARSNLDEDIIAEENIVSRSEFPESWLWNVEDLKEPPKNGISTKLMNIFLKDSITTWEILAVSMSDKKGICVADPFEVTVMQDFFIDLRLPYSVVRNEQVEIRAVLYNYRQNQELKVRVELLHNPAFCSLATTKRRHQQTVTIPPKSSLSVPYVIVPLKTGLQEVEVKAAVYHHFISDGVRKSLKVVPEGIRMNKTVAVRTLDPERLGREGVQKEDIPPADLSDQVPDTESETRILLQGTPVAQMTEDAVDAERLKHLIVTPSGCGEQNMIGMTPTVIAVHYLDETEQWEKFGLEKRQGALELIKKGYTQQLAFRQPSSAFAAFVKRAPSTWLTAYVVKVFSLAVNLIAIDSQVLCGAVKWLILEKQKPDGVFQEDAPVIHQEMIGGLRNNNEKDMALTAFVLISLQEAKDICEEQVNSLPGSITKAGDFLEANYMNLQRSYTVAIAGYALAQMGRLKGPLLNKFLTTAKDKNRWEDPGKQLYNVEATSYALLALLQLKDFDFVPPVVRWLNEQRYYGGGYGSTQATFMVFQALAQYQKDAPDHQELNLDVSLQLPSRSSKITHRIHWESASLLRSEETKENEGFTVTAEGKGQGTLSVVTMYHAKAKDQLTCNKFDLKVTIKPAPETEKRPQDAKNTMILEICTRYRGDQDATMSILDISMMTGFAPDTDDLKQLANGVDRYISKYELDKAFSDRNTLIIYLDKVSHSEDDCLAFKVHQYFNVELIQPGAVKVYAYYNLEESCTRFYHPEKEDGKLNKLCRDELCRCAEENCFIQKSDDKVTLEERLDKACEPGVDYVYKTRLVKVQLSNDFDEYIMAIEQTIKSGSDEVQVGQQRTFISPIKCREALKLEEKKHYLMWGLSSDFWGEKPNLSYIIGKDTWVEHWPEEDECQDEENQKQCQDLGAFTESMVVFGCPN
Test: cell-based or functional assay
OUTCOME_MEASURE: EC50 of hC3 cleavage (nM)
The answer is to be given in nM; state only the numeric part.

Recorded EC50 of hC3 cleavage, per entry:
| BINDER | OUTCOME_MEASURE | UNIT_STRING | OBSERVED_MEASUREMENT |
| --- | --- | --- | --- |
| MTSP-1 Q38H/I41S/D60bT/F60eS/F97D/ins97aV/T98P/F99L/C122S/G151H/Q175L/Q192D (enzyme) VVGGTDADEGEWPWQVSLHALGHGHSCGASLISPNWLVSAAHCYIDTRGSRYSDPTQWTAFLGLHDQSQRSAPGVQERRLKRIISHPFFNDDVPLDYDIALLELEKPAEYSSMVRPISLPDASHVFPAGKAIWVTGWGHTQYGGTHALILQKGEIRVINQTTCENLLPQLITPRMMCVGFLSGGVDSCDGDSGGPLSSVEADGRIFQAGVVSWGDGCAQRNKPGVYTRLPLFRDWIKENTGV | EC50 of hC3 cleavage | nM | 45.4 |
| MTSP-1 I41R/F97T/ins97aE/T98G/F99L/C122S/G151N/Q175S/Q192E (enzyme) VVGGTDADEGEWPWQVSLHALGQGHRCGASLISPNWLVSAAHCYIDDRGFRYSDPTQWTAFLGLHDQSQRSAPGVQERRLKRIISHPFFNDTEGLDYDIALLELEKPAEYSSMVRPISLPDASHVFPAGKAIWVTGWGHTQYGGTNALILQKGEIRVINQTTCENLLPQSITPRMMCVGFLSGGVDSCEGDSGGPLSSVEADGRIFQAGVVSWGDGCAQRNKPGVYTRLPLFRDWIKENTGV | EC50 of hC3 cleavage | nM | 267 |

Quick note, EC50 of hC3 cleavage for MTSP-1 Q38H/I41S/D60bT/F60eS/Y60gW/D96K/F97G/ins97aV/F99L/C122S/G151H/Q175L/Q192D (enzyme) VVGGTDADEGEWPWQVSLHALGHGHSCGASLISPNWLVSAAHCYIDTRGSRWSDPTQWTAFLGLHDQSQRSAPGVQERRLKRIISHPFFNKGVTLDYDIALLELEKPAEYSSMVRPISLPDASHVFPAGKAIWVTGWGHTQYGGTHALILQKGEIRVINQTTCENLLPQLITPRMMCVGFLSGGVDSCDGDSGGPLSSVEADGRIFQAGVVSWGDGCAQRNKPGVYTRLPLFRDWIKENTGV landed at 9.83
